# Tested on: NCI-H226 lung
# run_description: NCI-60 one-dose screen, 48 h (100 = growth as untreated, 0 = no growth, -100 = all killed)
# applied_conditions: 10 µM unless noted
# Method: Growth inhibition of the NCI-H226 human Non-Small Cell Lung tumor cell line is measured as a screen for anti-cancer activity. Cells are grown in 96 well plates and exposed to the test compound for 48 hours. Compounds are tested at a single concentration, which is 10^-5 M for most compounds. The reported endpoint is percent growth (GI% or GIPRCNT), where numbers from 0 - 100% represent growth inhibition, and numbers from -100% - 0 represent cell death. […]
The panel holds about 83,000 compounds, 20% with a hit somewhere; the sample as a whole holds those more often. The source made the active and inactive calls. The calls were made as follows: active = growth percent below 10; inactive = the rest.
We begin with a simple list: items and their reported growth.

Give the measured growth for N=C(N)c1ccc(-c2ccc(-c3ccc(F)cc3)s2)s1
90.4% (inactive)

Give the measured growth for Cc1cc2oc(=O)cc(CP(=O)(O)O)c2cc1O
102% (inactive)

Give the measured growth for C=C(CN1CC=CCC1)[C@@H]1CC[C@]2(CO)CC[C@]3(C)[C@H](CC[C@@H]4[C@@]5(C)CC[C@H](O)C(C)(C)[C@@H]5CC[C@]43C)[C@@H]12
97.4% (inactive)

Give the measured growth for CCOC(=O)c1n[nH]n2c1nc(=O)c1cnn(C)c12
98.1% (inactive)

Give the measured growth for Nc1c(C(=O)O)cc(Cl)cc1[N+](=O)[O-]
96.4% (inactive)

Give the measured growth for C=C1C(=O)O[C@H]2[C@H]1CC/C(COC(=O)/C=C\C(=O)NCc1ccc(Cn3c(=O)sn(-c4ccccc4)c3=O)cc1)=C\CC[C@@]1(C)O[C@@H]21
105% (inactive)

Give the measured growth for COc1ccc(C(c2cc(OC)c(OC)c(OC)c2)N2CCN(Cc3ccccc3)CC2)cc1 (stereo unspecified)
85.4% (inactive)

Give the measured growth for COc1ccc2c(c1)c(-c1nc(-c3cn(C)c4ncccc34)cs1)cn2CCO
70.1% (inactive)

Give the measured growth for O=C1CCC(C(=O)NN(c2ccccc2)c2ccccc2)N1 (stereo unspecified)
96.3% (inactive)

Give the measured growth for NC(=O)c1ccc(NC(=O)c2oc3ccccc3c2-c2cnn(-c3ccccc3)c2)cc1
13.9% [50 µM] (inactive)

Give the measured growth for CN1CCN(Cc2ccc(NC(=O)c3cncc(C#Cc4cncc5ncccc45)c3)cc2C(F)(F)F)CC1
12.7% (inactive)

* * *

# Test system: SF-539 CNS
# run_description: NCI-60 one-dose screen, 48 h (100 = growth as untreated, 0 = no growth, -100 = all killed)
# applied_conditions: 10 µM unless noted
This is part of a sample that, as a whole, favours compounds with a hit. Of some 83,000 tested, about 20% had one in any assay.
Could you label it 1.0 if measured growth is 40% or higher, and 0.0 otherwise?

- compound: "Cc1cccc(N2CCN(C(=S)c3ccc4c(c3)OCO4)CC2)c1"
  target_or_test_system: "SF-539 CNS"
  label_value: 0.0

Does growth meet or surpass 40% for O=C1/C=C/[C@@H](O)[C@@H]2C[C@@H](O)C[C@H]2/C=C/CCC[C@H](CCOCc2ccccc2)O1 ?
0.0

Does growth meet or surpass 40% for C[N+](C)(C/C=C/c1ccccc1)Cc1ccccc1 ?
1.0

Does growth meet or surpass 40% for CC1=NN(c2ccc(Cl)cc2)CC1(C)N=O (stereo unspecified) ?
1.0

* * *

# System: OVCAR-3 ovarian
# run_description: NCI-60 one-dose screen, 48 h
# applied_conditions: 10 µM unless noted
# Protocol: Growth inhibition of the OVCAR-3 human tumor cell line is measured as a screen for anti-cancer activity. Cells are grown in 96 well plates and exposed to the test compound for 48 hours. Compounds are tested at a single concentration, which is 10^-5 M for most compounds. The reported endpoint is percent growth (GI% or GIPRCNT), where numbers from 0 - 100% represent growth inhibition, and numbers from -100% - 0 represent cell death. For example, a value of 40 represents 60% growth inhibition. […]
About 83,000 compounds went through this panel and 20% of them were active in at least one assay; those are over-represented in the sample as a whole. Activity calls are given as the source filed them. The calls were made as follows: active = growth percent below 10; inactive = the rest.
Allowed answers: active, inactive

Some entries whose results are on file:
- molecule: "Cc1ccc(O)c(NC(=O)c2ccc(CNc3ccnc(C(F)(F)F)c3)cc2)c1"
  label_value: "inactive"
- molecule: "COc1ccc(C2CC(c3ccc(Nc4nc(Nc5ccc(F)cc5)nc(Nc5ccc(F)cc5)n4)cc3)=NN2C(C)=O)cc1 (stereo not given)"
  label_value: "inactive"
- molecule: "CCN1C(=O)N(CC)C2C1NN=c1s/c(=C3\\C(=O)N(CCc4ccccc4)c4ccccc43)c(=O)n12 (stereo not given)"
  label_value: "active"
- molecule: "Cc1ccc(-c2cc(C(=O)N3N=C(c4ccc(N)cc4)CC3c3ccc(Cl)cc3)c3ccccc3n2)cc1 (stereo not given)"
  label_value: "inactive"
- molecule: "c1ccc2cc(Cn3c[n+](Cc4ccc5ccccc5c4)c4ccccc43)ccc2c1"
  label_value: "active"
- molecule: "N=C(N)SCc1cccc2c(CSC(=N)N)cccc12"
  label_value: "inactive"
- molecule: "C#Cc1cccc(Oc2ccc(NC(=O)CCl)cc2)c1"
  label_value: "active"
- molecule: "CN(Cc1cnc2nc(N)nc(N)c2n1)c1c(Cl)cc(C(=O)NC(CCC(=O)O)C(=O)O)cc1Cl (stereo not given)"
  label_value: "inactive"

Please indicate how the test categorized Cn1cc(-c2ccc3cc(-c4ccc(CC(=O)Nc5cc(C(C)(C)C)on5)cc4)cnc3c2)cn1 .
inactive

Please indicate how the test categorized N#Cc1c(-c2ccccc2)c(C#N)c2c(C#N)c(N)nn2c1N .
inactive

Please indicate how the test categorized N#Cc1c(N2CCOCC2)nc(=S)[nH]c1-c1ccccc1 .
inactive

Please indicate how the test categorized Cc1ccc(Nc2nc(-c3ccc(F)cc3)c(C#N)c(=O)n2C)cc1 .
inactive

Please indicate how the test categorized O=C1NC(=C(Cl)Cl)/C(=N/S(=O)(=O)NCCc2c[nH]c3ccccc23)N1 .
active

Please indicate how the test categorized OC(c1ccccc1)(c1ccccc1)c1ccccc1-c1ccccc1 .
inactive

* * *

# System: HT29 colon
# run_description: NCI-60 one-dose screen, 48 h (100 = growth as untreated, 0 = no growth, -100 = all killed)
# applied_conditions: 10 µM unless noted
# Protocol: Growth inhibition of the HT29 human tumor cell line is measured as a screen for anti-cancer activity. Cells are grown in 96 well plates and exposed to the test compound for 48 hours. Compounds are tested at a single concentration, which is 10^-5 M for most compounds. The reported endpoint is percent growth (GI% or GIPRCNT), where numbers from 0 - 100% represent growth inhibition, and numbers from -100% - 0 represent cell death. For example, a value of 40 represents 60% growth inhibition. […]
This is part of a sample that, as a whole, favours compounds with a hit. Of some 83,000 tested, about 20% had one in any assay.
measured_parameter: growth (%)
Write the answer as a number in %, unit excluded.

- compound: "CCN1C(=S)N(CC)C2C1NC(=S)N2/N=C/C=C/c1ccccc1OC (centres undefined)"
  growth, %: 2.78

Give the measured growth for Brc1ccc(-c2cnc3nonc3n2)cc1
70.2

Give the measured growth for O=C1CCC(C(=O)NN(c2ccccc2)c2ccccc2)N1 (centres undefined)
111

Give the measured growth for CC1(C)CC2=C3C=C[C@@H]4[C@@]5(C)CC[C@H](O)C(C)(C)[C@@H]5CC[C@@]4(C)[C@]3(C)CC[C@@]2(C(=O)O)CC1=O
35.7

* * *

# System: CAKI-1 renal
# run_description: NCI-60 one-dose screen, 48 h
# applied_conditions: 10 µM unless noted
The panel holds about 83,000 compounds, 20% with a hit somewhere; the sample as a whole holds those more often. The source made the active and inactive calls. The calls were made as follows: active = growth percent below 10; inactive = the rest.
Allowed answers: active, inactive

Some entries whose results are on file:
- compound: "CC(C)(C)C(=O)/C=C/c1ccc([N+](=O)[O-])cc1"
  label_value: "inactive"
- compound: "CC(O)c1ncc(/C=C2\\SC(=S)N(Cc3ccccc3)C2=O)s1 (stereo not drawn)"
  label_value: "inactive"
- compound: "CCCCCCC(CCCC)COC(=O)c1ccc(Cl)cc1 (stereo not drawn)"
  label_value: "inactive"
- compound: "CCN(CCO)CC(C)Nc1ccc([N+](=O)[O-])c2sc3ccccc3c(=O)c12 (stereo not drawn)"
  label_value: "active"
- compound: "C#CCOc1cccc(-c2ncc3cc(NC(=O)CCl)ccc3n2)c1"
  label_value: "active"
- compound: "Nc1c(C(=O)Nc2ccccn2)sc2nc3c(cc12)C(O)CCC3 (stereo not drawn)"
  label_value: "inactive"
- compound: "CC1(C)CCC(S(=O)(=O)c2ccc3c(c2)/C(=N\\O)c2cc(S(=O)(=O)N4CCN(c5ccc(F)cc5O)CC4)ccc2-3)CC1"
  label_value: "active"
- compound: "Cc1cc(N2CCCCC2)nc(N2CCN(CC(=O)Nc3ccc4c(ccn4Cc4ccccc4)c3)CC2)n1"
  label_value: "inactive"

Please indicate how the test categorized O=C(/C=C\c1ccco1)/C=C/c1ccco1 .
inactive

Please indicate how the test categorized NC(=O)c1ccc(NC(=O)c2oc3ccccc3c2-c2cnn(-c3ccccc3)c2)cc1 .
active

Please indicate how the test categorized Cn1ncc2ccc(-c3nc(-c4ccccc4)[nH]c3-c3n[nH]c(=O)n3C3CC3)cc21 .
inactive

Please indicate how the test categorized COc1ccc(-c2oc(=O)ccc2-c2cc(OC)c(OC)c(OC)c2)cc1O .
active

Please indicate how the test categorized CCOC(=O)C1CCN(c2ccc(N3C[C@@H](CNCc4ccc(C(=N)N)cc4)OC3=O)cc2)CC1 .
inactive

Please indicate how the test categorized CCOC(=O)c1c(C)nn(CC(O)c2ccccc2)c1NC(=O)Nc1cccc(F)c1 (stereo not drawn) .
inactive

Please indicate how the test categorized COc1ccc2cc(Cn3cc[n+](Cc4ccc5ccccc5c4)c3)ccc2c1 .
inactive

Please indicate how the test categorized O=C(CCCCl)NNc1nccc(Nc2ccc(S(=O)(=O)Nc3ccncc3)cc2)n1 .
inactive

Please indicate how the test categorized CC(=O)Nc1c(Cl)cc(Cl)c2c1Cc1cc([N+](=O)[O-])ccc1-2 .
inactive

Please indicate how the test categorized C#CC#CC#CC#CC#CC#CC#CC#CC[C@H]1OC[C@H](COC(=O)O[C@@H](C(=O)O[C@H]2C[C@@]3(O)[C@@H](OC(=O)c4ccccc4)[C@@H]4[C@]5(OC(C)=O)CO[C@@H]5C[C@H](O)[C@@]4(C)C(=O)[C@H](OC(C)=O)C(=C2C)C3(C)C)[C@@H](NC(=O)c2ccccc2)c2ccccc2)O1 .
inactive
